biological target: human nerve growth factor (beta-NGF) (human, UniProt P01138 122-241); test: cell-based or functional assay
Sequence (P01138 122-241): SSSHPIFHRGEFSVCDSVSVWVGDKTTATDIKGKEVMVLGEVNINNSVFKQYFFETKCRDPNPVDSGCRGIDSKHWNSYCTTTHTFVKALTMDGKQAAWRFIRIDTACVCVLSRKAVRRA
Consider the following binders; for each one, report its IC50, PC12 cell survival.
Give bare numbers, in nM.

For orientation, consider the following solved cases.
# IC50, PC12 cell survival of 1131D7 human IgG4 (antibody, V domains shown) VH: EVQLVQSGAEVKKPGSSVKVSCKASGGTFSTYGISWVRQAPGQGLEWIGGIIPIFDTGNSAQSFQGRVTITADESTSTAYMEVSSLRSDDTAVYYCASSSRIYDFNSSLIAYYDMDVWGQGTMVTVSS VL: QAVLTQPSSVSTPPGQKVTISCSGSSSNIGNNYVSWYQQLPGTAPKLLIYDNNKRPSGIPDRFSGSKSGTSATLGITGLQTGDETDYYCGTWDSSLSAWVFSGGTKLTVL = 670

The recorded IC50, PC12 cell survival for 1126F1 human IgG4 (antibody, V domains shown) VH: EVQLVQTGAEVKKPGSSVKVSCKASGGTFSTYGISWVRQAPGQGLEWIGGIIPIFDTGNSAQSFQGRVTITADESTSTAYMEVSSLRSDDTAVYYCASSSRIYDANRQAVPYYDMDVWGQGTMVTVSS VL: QAVLTQPSSVSTPPGQMVTISCSGSSSDIGNNYVSWYQQLPGTAPKLLIYDNNKRPSGIPDRFSGSKSGTSATLGITGLQTGDEADYYCGTWDSSLSAWVFGGGTKLTVL is 2.9

Please turn your attention to the following entry.
Sample 1126H5 human IgG4 (antibody, V domains shown) VH: EVQLVQSGAEVKKPGSSVKVSCKASGGTFSTYGISWVRQAPGQGLEWIGGIIPIFDAGNSAQSFQGRVTITADESTSTAHMEVSSLRSEDTAVYYCASSSRIYDHHIQKGGYYDMDVWGQGTMVTVSS VL: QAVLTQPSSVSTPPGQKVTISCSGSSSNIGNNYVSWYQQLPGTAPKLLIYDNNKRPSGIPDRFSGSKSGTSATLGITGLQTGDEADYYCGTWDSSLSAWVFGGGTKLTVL ; IC50, PC12 cell survival observed: 8.7
